Values compiled from patent US8633245B2.

- assayed_target: recombinant human PAI-1 (Homo sapiens)
- Construct: purchased Molecular Innovations, Inc
- Sequence (P05121 24-402): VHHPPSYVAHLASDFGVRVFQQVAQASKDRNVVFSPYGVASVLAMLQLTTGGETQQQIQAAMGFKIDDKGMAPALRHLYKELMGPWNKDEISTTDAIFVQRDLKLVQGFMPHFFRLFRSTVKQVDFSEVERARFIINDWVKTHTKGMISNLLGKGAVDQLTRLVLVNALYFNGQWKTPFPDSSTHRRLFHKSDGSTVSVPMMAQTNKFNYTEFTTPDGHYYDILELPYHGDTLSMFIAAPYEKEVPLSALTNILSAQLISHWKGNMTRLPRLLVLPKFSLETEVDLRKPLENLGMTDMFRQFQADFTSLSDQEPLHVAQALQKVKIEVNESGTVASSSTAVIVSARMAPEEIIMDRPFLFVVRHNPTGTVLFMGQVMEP
- method_notes: Test Example 1: human PAI-1 inhibitory activity (tPA fluorogenic substrate, pH 7.5 Tris buffer)
- Type: biochemical
- condition_set: Compound Concentration 25 μM; Tris buffer
observed_property: Inhibition Rate of PAI-1 Activity (%)

Answered examples (5):
compound: CC(C)(C)c1ccc(COc2ccc(Nc3ccc(OC(F)(F)F)cc3)cc2CCC(=O)O)cc1
measurement_unit: %
Inhibition Rate of PAI-1 Activity (%): 92

compound: O=C(O)CCc1cc(-c2ccc(OC(F)(F)F)cc2)ccc1OCCCOc1ccccc1
measurement_unit: %
Inhibition Rate of PAI-1 Activity (%): 89

compound: Cc1ccc(N(Cc2ccc(C(C)(C)C)cc2)C(=O)C(=O)O)cc1OCc1ccc(OC(F)(F)F)cc1
measurement_unit: %
Inhibition Rate of PAI-1 Activity (%): 91

compound: O=C(O)C(=O)N(CCCCc1ccccc1)c1ccc(-c2ccc(OC(F)(F)F)cc2)cc1
measurement_unit: %
Inhibition Rate of PAI-1 Activity (%): 88

compound: CC(C)(C)c1ccc(-c2ccc(Oc3ccc(-c4ccc(OC(F)(F)F)cc4)cc3/C=C/C(=O)O)c(CCC(=O)O)c2)cc1
measurement_unit: %
Inhibition Rate of PAI-1 Activity (%): 91

a = CC(C)(C)c1ccc(COc2c(Cl)cc(-c3ccc(OC(F)(F)F)cc3)cc2CCC(=O)O)cc1
b = COc1ccccc1COc1ccc(-c2ccc(OC(F)(F)F)cc2)cc1CCC(=O)O
Given a and b , report the one with the higher recorded Inhibition Rate of PAI-1 Activity (%). Identify your pick by its label.
a

P = CCCOc1ccc(N(Cc2ccccc2)C(=O)C(=O)O)cc1-c1ccc(OC(F)(F)F)cc1
Q = CCCCCCN(C(=O)C(=O)O)c1ccc(Oc2ccc(OC(F)(F)F)cc2)cc1
Which has the higher Inhibition Rate of PAI-1 Activity (%), P or Q ? Pick one and reply with its label.
P
